Biological target: NADPH oxidase 2 (Homo sapiens)
Assay: NOX2-dependent H2O2 signal modulators, primary screen, NOX inhibitor project, cell-based, HEK293-NOX2, PMA-stimulated, Amplex Red fluorescence (AID 1159)
Conditions: 45 min, higher = more signal, called active from +8 up or from −8 down
Group membership follows z-score per the scheme lower band: < 0.1; central band: ≥ 0.1 and < 1; upper band: ≥ 1

Known results for molecules:
COCCOC(=O)N1C(=O)[C@@]2(c3cc(C#CC4(O)CCCCCC4)ccc31)[C@H](c1ccccc1OCCO)N1[C@H](c3ccccc3)[C@H](c3ccccc3)OC(=O)[C@H]1[C@@H]2C(=O)Nc1nc2ccccc2s1 | upper band
C=C1C=C(Br)C2(OCCCO2)[C@H]2OC12 (stereo partly specified) | central band
CN(C)CCCC[C@@H]1NC(=O)[C@@H]2C[C@H](C(=O)NCCCCCNC(=O)CS)[C@H](c3cccc(OCCO)c3)N2C1=O | lower band

Each molecule maps to one class by z-score. Which class for C=CCC(OC(C)=O)[C@@H]1[C@@H](N(Cc2ccc(-c3ccccc3)cc2)C(=O)c2ccc(-c3ccccc3)cc2)c2cc(OCCCO)ccc2N1C(=O)c1ccc(-c2ccccc2)cc1 (stereo partly specified) ?
central band

Exercise: read the entry C=CCN1C(=O)[C@@]2(O[C@@H](CCO)[C@H]([Si](C)(C)c3ccc(OC)cc3)[C@H]2C)c2cc(N(C=O)c3ccccc3)ccc21 and state which class it falls under.
lower band

Field: class (z-score) — entry: CCCCC(=C=CC[C@H](O)c1cccc(OCCO)c1)CCO
upper band

State the band of O=C1O[C@H](c2ccccc2)[C@H](c2ccccc2)N2[C@H]1[C@@H](C(=O)Nc1nc3ccccc3s1)[C@]1(C(=O)Nc3ccc(C#CCCO)cc31)[C@H]2c1ccccc1OCCO
central band

###

# composite z-score values compiled below
Tested on: XIP peptide (Xip251-270) binding
Test: small-molecule binders of XIP peptide, primary screen, biochemical, small-molecule microarray, fluorescence 635/667 nm, 0.1 µg/mL protein (AID 1182)
Conditions: fluorescent protein binding, 635 nm, higher = more signal, called active from +8 up or from −8 down
Quick one: just the number, no unit, thanks!

Cc1ccc(S[C@]2(C(=O)NC3CC3)CC(=O)N(Cc3ccccc3C(F)(F)F)[C@@H]2c2ccc(CO)cc2I)cc1 | 0.0437
C=C(COC)C(=O)CC[C@H](OC(=O)c1cccnc1)c1cccc(OCCO)c1 | 0.804
CC(C)CCC[C@@H](C)[C@H]1CC[C@@]2(C)C3=C(CC[C@]12C)[C@@]1(C)CC[C@H](OC(=O)CCl)C(C)(C)C1CC3 (some centres undefined) | 0.133
COC(=O)[C@@]1(CCC(=O)OC(C)(C)C)COC(c2ccc(OCCCO)cc2)=N1 | -0.191

State the recorded composite z-score for this entry: CC(C)C(=C=CC[C@@H](O)c1ccc(CO)o1)CCO
0.676

Give its composite z-score value. Item: CC(C)(C)OC(=O)CC[C@@]12N=C(c3ccc(OCCCO)cc3)O[C@@H]1c1ccccc1N(Cc1ccccc1)C2=O
1.63

Give its composite z-score value. Item: COc1ccc([Si](C)(C)[C@H]2[C@H](CC(=O)N(CCO)Cc3ccccc3)O[C@@]3(C(=O)N(Cc4cccc(N5C(=O)COc6ccccc65)c4)c4ccccc43)[C@@H]2C)cc1
1.65

Which composite z-score is listed for CCOC(=O)C[C@H]1[C@H](OC(=O)c2cc3ccccc3oc2=O)[C@@H](NC(=O)c2ccccc2)c2cc(OCCCO)ccc2N1C(=O)Cc1ccc(OC)cc1 ?
0.282

Query: composite z-score; subject: C=CCN1C(=O)[C@@]2(O[C@@H](CCO)[C@H]([Si](C)(C)c3ccc(OC)cc3)[C@H]2C)c2cc(N(C=O)c3ccccc3)ccc21
0.527

###

Target: NADPH oxidase 4 (Homo sapiens) (UniProt Q9NPH5)
Sequence (Q9NPH5 whole entry, looked up): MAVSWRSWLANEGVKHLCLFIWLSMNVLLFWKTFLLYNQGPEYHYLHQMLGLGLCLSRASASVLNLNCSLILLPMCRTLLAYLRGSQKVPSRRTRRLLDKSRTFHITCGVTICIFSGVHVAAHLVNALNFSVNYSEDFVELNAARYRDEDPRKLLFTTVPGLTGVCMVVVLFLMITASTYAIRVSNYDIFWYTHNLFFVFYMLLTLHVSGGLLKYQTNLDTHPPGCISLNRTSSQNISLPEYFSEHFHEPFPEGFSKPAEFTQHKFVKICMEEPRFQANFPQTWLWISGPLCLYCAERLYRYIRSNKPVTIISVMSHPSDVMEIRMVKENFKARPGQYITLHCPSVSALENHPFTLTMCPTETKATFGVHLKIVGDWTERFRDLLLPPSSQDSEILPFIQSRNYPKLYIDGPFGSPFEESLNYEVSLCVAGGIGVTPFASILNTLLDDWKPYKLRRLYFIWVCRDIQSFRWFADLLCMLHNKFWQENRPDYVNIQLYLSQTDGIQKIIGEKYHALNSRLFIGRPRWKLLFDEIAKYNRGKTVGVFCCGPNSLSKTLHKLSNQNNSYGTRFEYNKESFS
Assay: NOX4-dependent H2O2 signal modulators, primary screen, NOX inhibitor project, cell-based, HEK293-NOX4, tetracycline-induced, Amplex Red fluorescence (AID 1160)
Details: 45 min, higher = more signal, called active from +8 up or from −8 down
z-score by entry:
Format: numeric value only, no unit, no commentary.

What value of measured z-score is listed for NC(=O)N1C(=O)C2C(C1=O)C1C=C(c3ccc(CO)cc3)C2C(C2CC2)N1Cc1cc2c(cc1Br)OCO2 (stereo not drawn) ?
1.48

What value of z-score has been reported for the following molecule? C/C=C/[C@@H](CCn1cc(CCO[Si](C(C)C)(C(C)C)C(C)C)nn1)[Si](C)(C)c1ccc(OC)cc1
0.0135

Data request, read-out z-score, for COCCOC(=O)N1C(=O)[C@@]2(c3cc(C#CCCO)ccc31)[C@H](c1ccccc1OCCO)N1[C@H](c3ccccc3)[C@H](c3ccccc3)OC(=O)[C@H]1[C@@H]2C(=O)NC[C@H](O)c1ccccc1
1.52

###

Test: splicing luciferase reporter signal modulators, primary screen, spliceosome inhibition project, cell-based, HEK293, splice +/- reporter (AID 1101);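 note: HEK293 cells carrying a splicing-competent luciferase reporter gene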
Conditions: luminescence, 24 h, higher = more signal, called active from +8 up or from −8 down
assayEndpoint: z-score
# print the numeric value only

Below, each entry is followed by its recorded z-score result.
CC(C)(C)OC(=O)CC[C@@]12N=C(c3ccc(OCCCO)cc3)O[C@@H]1c1ccccc1CN(Cc1ccccc1)C2=O | -0.0992
CC(C)C(=C=CC[C@@H](O)c1ccc(CO)o1)CCO | -0.493
[N-]=[N+]=Nc1ccccc1[C@H]1OC(c2ccc(OCCCO)cc2)=N[C@@]1(Cc1ccccc1)C(N)=O | -1.86
CC(C)C[C@@H]1NC(=O)[C@@]23C(=O)N[C@@H](Cc4ccccc4)C2[C@H](C)[C@@]2(C)O[C@H]2C3/C=C/C/C=C\CNC(=O)[C@H](Cc2ccccc2)NC1=O (stereo partly drawn) | -0.639
C=CC[C@@H](OC(=O)Nc1ccc(SC)cc1)c1ccc(OCCO)cc1 | -1.83

# query: z-score of entry COC(=O)c1c(CC[C@@H](CO)NC(=O)Nc2ccc(OC)cc2)oc(C(=O)Cc2ccccc2)c1C(=O)OC
-0.487

I am curious: what z-score value has been reported for COC(=O)C1=CC(c2ccc(CO)cc2)=CC(c2cccs2)N(C)C=C1C(=O)OC (stereo not drawn) ?
-1.77

Item O=C1c2ccccc2[C@@]2(Cc3ccccc3N(CC(F)(F)F)C2=O)[C@H](c2ccc(CO)cc2)N1Cc1ccccc1C(F)(F)F has what recorded z-score?
-0.0373

###

Assay: A549 cell viability effects, profiling panel, calcein-AM fluorescence, 48 h, basal (AID 1162)
Conditions: higher = more signal
Quick rule: z-score of at least 0.1 means Criterion met, below that means Criterion not met.

The examples below pair each entry with its known result.
CCCCCCC#C[Si](O[C@H](c1ccccc1)c1cn(Cc2ccccc2)nn1)(C(C)C)C(C)C | Criterion met
COc1ccc([Si](C)(C)[C@H]2[C@H](CC(=O)N(CCO)Cc3ccccc3)O[C@@]3(C(=O)N(Cc4ccc(N5CCC5=O)cc4)c4ccccc43)[C@@H]2C)cc1 | Criterion not met
C=C(COC)/C(=C/C[C@H](OC(C)=O)c1cccc(OCCO)c1)c1cc(C(=O)OC)ccc1OC | Criterion not met
O=C(NC1CC1)[C@@H]1c2ccccc2C(=O)N(Cc2ccccc2C(F)(F)F)[C@H]1c1ccc(CO)cc1 | Criterion met
C=CCN1C(=O)[C@@]2(O[C@@H](CCO)[C@H]([Si](C)(C)c3ccc(OC)cc3)[C@H]2C)c2cc(N3C(=O)c4cccc5cccc3c45)ccc21 | Criterion not met
C=CCN1C(=O)[C@@]2(O[C@@H](CCn3cc(CCO)nn3)[C@H]([Si](C)(C)c3ccc(OC)cc3)[C@H]2C)c2cc(NC(=O)c3ccc(OC)cc3)ccc21 | Criterion not met
C=CC[C@]1(C(=O)N(C)C)N=C(c2ccc(OCCCO)cc2)O[C@H]1c1ccccc1CN=[N+]=[N-] | Criterion met
CC(C)(C)OC(=O)CC[C@]1(C(=O)NCc2ccccc2)N=C(c2ccc(OCCCO)cc2)O[C@H]1c1ccccc1N=[N+]=[N-] | Criterion met
COc1ccc([Si](C)(C)[C@@H]2[C@@H](CCn3cc([C@H](O)c4ccccc4)nn3)O[C@]3(C(=O)N(C)c4c(Br)cc(C)cc43)[C@H]2C)cc1 | Criterion not met
O=C1O[C@@H](c2ccccc2)[C@@H](c2ccccc2)N2[C@@H](c3ccc(OCCO)cc3)[C@]3(C(=O)Nc4ccc(C#CC5(O)CCCCCC5)cc43)[C@@H](C(=O)NC[C@H](O)c3ccccc3)[C@H]12 | Criterion met

Can C=CCOC(=O)[C@H]1[C@@H]2C(=O)O[C@@H](c3ccccc3)[C@@H](c3ccccc3)N2[C@@H](c2ccc(OCCOC(=O)[C@H]3C[C@H]4C(=O)N5CCC[C@H]5C(=O)N4[C@H]3c3cccc(OCCO)c3)cc2)[C@]12C(=O)Nc1ccccc12 be said to have z-score at or above 0.1?
Criterion met

Check if z-score >= 0.1 (inclusive). Item: C=C1C=C(Br)C2(OCCCO2)[C@H]2OC12 (stereo not given in full)
Criterion not met

Does COc1ccc([Si](C)(C)[C@@H]2[C@@H](CC(=O)N3CCC[C@H]3CO)O[C@]3(C(=O)N(Cc4ccc(I)cc4)c4ccccc43)[C@H]2C)cc1 have a reported z-score of at least 0.1?
Criterion not met

Is z-score for CC(C)NC(=O)[C@@H]1c2ccccc2C(=O)N(Cc2cc(F)cc(C(F)(F)F)c2)[C@H]1c1ccc(CO)cc1 at or above 0.1?
Criterion met

Is reported z-score greater than or equal to 0.1 here: C=CC[C@@]1(C(=O)NCc2ccccc2)N=C(c2ccc(OCCCO)cc2)O[C@@H]1c1ccccc1
Criterion not met
